Protocol: yeast display, Sf9 membrane polyspecificity reagent, FACS + sequencing; frameworks hold sequencing errors
Measurement type: polyreactivity (PSR sort gate)

Please review the following examples before continuing.
Seq string	polyreactivity (PSR sort gate)
QVQLVESGGGLVQAGGSLRLSCAASGSIFDYYTMGWYRQAPGKERELVAAITRSGGRTYYADSVKGRFTISRDYAKNTDYLLMNSLKPEDTAVYNCSTGAVSRFGNGPYDFWGQGTQVTVSS	high polyreactivity
QVQLEESGGGLVQAGGRLRLSCAASGSIFDLNAMGRYRQAPGKERELVAAISQRGTRTYYADSVKGRFTISRDNAKNNVYLQMNSLIPEDTAVYYCAVGNGLSRYVYGDYEYWGQGTQVTVSS	high polyreactivity
QVQLVESGGGLVQAGGSLRLSCAASGSTFRSNAMGWYRQAPGKERELVASINWSGDSTYYADSVKGRFTISRDNAKNTVYLQMNSLKPEDTAVYYCNAVVDTTEYPYEYDYWGQGTQVTVSS	low polyreactivity
QVQHVESGGGLVQAGRSLRLICAASGRNSKGYAMAWDRQAPGKERELVAAYADSVKGRFTIARDNAKNTVYLQMNSLKPEDTAVYYCNADYDQVSRVGYVYWAYYYWGQGTQVTVSS	low polyreactivity

Find the measured polyreactivity (PSR sort gate) of "QVQLVESGGGLVQAGGSLRLSCAASGSTFRRYAMGWYRQAPGKEREFVAGITFSGVSTYYADSVKGRFTISRDNAKNTVYLQMNSLKPEDTAVYYCNRRPKYVDNDYWGQGTQVTVSS" and report it.
high polyreactivity
